Data credit: ChEMBL document CHEMBL4613302

system: U2OS; experiment: Antiproliferative activity against human U2OS cells assessed as reduction in cell viability incubated for 48 hrs by MTT assay; type: functional, cell-based
Below: a set of entries, each annotated with reported pEC50.
As a rule, pEC50 stands for the negative log10 of the concentration, concentration in M.

Worked set:
{"columns": ["Compound", "System Tested", "pEC50"],
 "data": [
  ["CCCCCCCC(=O)SCC/C=C/[C@@H]1CC(=O)NCc2nc(cs2)C2=N[C@@](C)(CS2)C(=O)N[C@@H](C(C)C)C(=O)O1", "U2OS", 6.43],
  ["CC(C)[C@@H]1NC(=O)[C@]2(C)CSC(=N2)c2csc(n2)CNC(=O)C[C@@H](/C=C/CCSC(=O)CCCCO[N+](=O)[O-])OC1=O", "U2OS", 6.51]
]}

Next up:
Which pEC50 value is on record for CC(C)[C@@H]1NC(=O)[C@]2(C)CSC(=N2)c2csc(n2)CNC(=O)C[C@@H](/C=C/CCSC(=O)CCC(CO[N+](=O)[O-])O[N+](=O)[O-])OC1=O (stereo partly drawn) ?
6.13
